# experimental protocol: RP, Thermo Scientific Acclaim RSLC 120 C18, 100 × 2.1 mm, 2.2 µm, 30 °C, 0.2 mL/min, estimated dead time 1.1 min; A: 90% water + 10% methanol + 0.01% formic acid + 5 mM ammonium formate, pH 3.61; B: methanol + 0.01% formic acid + 5 mM ammonium formate, pH 3.61; gradient (min/%B) 0/1 1/1 2/39 13/99.9 15/99.9 15.1/1 20.1/1
# condition info: stereoisomer not certain
Exam item: assign fulfilled to entries whose LC retention time is below 7 min and not fulfilled to entries at or above 7 min. Note that a value of exactly 7 min receives not fulfilled.

>>> assigned_category("CCN(CCO)CCCC(C)Nc1ccnc2cc(Cl)ccc12 (stereo unspecified) [Chloroquine-Hydroxy]")
"fulfilled"
>>> assigned_category("CCCCCn1cc(C(=O)c2cccc3ccccc23)c2ccc(OC)cc21 [JWH-018-6-Methoxy-Ind]")
"not fulfilled"
>>> assigned_category("CCOS(=O)(=O)O [Ethyl Sulphate (NH4)]")
"fulfilled"
>>> assigned_category("Cc1nnc2n1-c1ccc(Cl)cc1C(c1ccccc1)=NC2 [Alprazolam]")
"not fulfilled"

Please turn your attention to the following entry.
Please check: LC retention time for CC(=O)C1(O)CCC2C3CC(C)C4=CC(=O)C=CC4(C)C3(F)C(O)CC21C (stereo unspecified) [Fluorometholone] , strictly under 7 min or not?
not fulfilled

###

# experimental protocol: RP, Thermo Scientific Acclaim RSLC 120 C18, 100 × 2.1 mm, 2.2 µm, 30 °C, 0.2 mL/min, estimated dead time 1.1 min; A: 90% water + 10% methanol + 0.01% formic acid + 5 mM ammonium formate, pH 3.61; B: methanol + 0.01% formic acid + 5 mM ammonium formate, pH 3.61; gradient (min/%B) 0/1 1/1 2/39 13/99.9 15/99.9 15.1/1 20.1/1
# condition info: stereoisomer not certain
reported endpoint: LC retention time (min)
Report the figure in min without appending any unit label.

Below, each entry is followed by its recorded LC retention time result.
>>> measured_value("CC(C)NCC(O)COc1ccc(CCOCC2CC2)cc1 (stereo not given)")
6.68
>>> measured_value("C#CC1(O)CCC2C3CCc4cc(O)ccc4C3CCC21C (stereo not given)")
9.46
>>> measured_value("CNC(C)Cc1cccs1 (stereo not given)")
3.69
>>> measured_value("Nc1nnc(-c2cccc(Cl)c2Cl)c(N)n1")
5.31
>>> measured_value("CNC(=O)Oc1cccc2c1OC(C)(C)O2")
7.02
>>> measured_value("CCOP(=S)(OCC)Oc1ccc(=O)n(-c2ccccc2)n1")
9.79

Query: LC retention time; subject: CC=CCC1=C(C)C(OC(=O)C2C(C=C(C)C(=O)OC)C2(C)C)CC1=O (stereo not given)
11.6

LC retention time for `Nc1ccc(S(=O)(=O)O)c(N)c1` ?
1.36

Param item = `CCCc1nn(C)c2c(=O)[nH]c(-c3cc(C(=O)CN4CCN(C)CC4)ccc3OCC)nc12` ; retrieve measured LC retention time.
6.99

LC retention time for `CCCCCn1cc(C(=O)c2ccc(Cl)c3ccccc23)c2ccccc21` ?
13.3

# get_value(readout='LC retention time', item= `CSc1nnc(C(C)(C)C)c(=O)[nH]1` )
7.46

Fill in the blank: the reported LC retention time of `Nc1ccc(S(=O)(=O)Nc2ncccn2)cc1` is ____.
3.48

Quick one: LC retention time for CC1COc2ccccc2N1C(=O)C(Cl)Cl (stereo not given) ?
8.87

Query: LC retention time; subject: `CNCC12CCC(c3ccccc31)c1ccccc12`
6.52

Quick one: LC retention time of `CCCCCn1cc(C(=O)c2ccc(Br)c3ccccc23)c2ccccc21` ?
13.4

Which LC retention time is listed for `COC(=O)Nc1ccc(Cl)c(Cl)c1` ?
9.68

###

The reader will find reported LC retention time values listed item by item below.
# experimental protocol: RP, Thermo Scientific Acclaim RSLC 120 C18, 100 × 2.1 mm, 2.2 µm, 30 °C, 0.2 mL/min, estimated dead time 1.1 min; A: 90% water + 10% methanol + 0.01% formic acid + 5 mM ammonium formate, pH 3.61; B: methanol + 0.01% formic acid + 5 mM ammonium formate, pH 3.61; gradient (min/%B) 0/1 1/1 2/39 13/99.9 15/99.9 15.1/1 20.1/1
# condition info: stereoisomer not certain
Answer with a number only, understood to be in min.

>>> measured_value("CN1C2CCC1CC(OC(c1ccccc1)c1ccccc1)C2 (stereo not given)")
7.97

Suppose we examine the compound `COc1ncc(F)c2nc(S(=O)(=O)Nc3c(F)cccc3F)nn12` ; what LC retention time value has been reported?
5.75

// returns reported LC retention time for input `NC(N)=NC(=O)c1nc(Cl)c(N2CCCCCC2)nc1N`
3.23

What does the record list as LC retention time for `CCCCCCCCCC[N+](C)(C)CCCCCCCCCC` ?
12.6

For the compound N#Cc1nn(-c2c(Cl)cc(C(F)(F)F)cc2Cl)c(N)c1S(=O)C(F)(F)F (stereo not given) , what LC retention time is on record?
10.5

###

# experimental protocol: RP, Thermo Scientific Acclaim RSLC 120 C18, 100 × 2.1 mm, 2.2 µm, 30 °C, 0.2 mL/min, estimated dead time 1.1 min; A: 90% water + 10% methanol + 0.01% formic acid + 5 mM ammonium formate, pH 3.61; B: methanol + 0.01% formic acid + 5 mM ammonium formate, pH 3.61; gradient (min/%B) 0/1 1/1 2/39 13/99.9 15/99.9 15.1/1 20.1/1
# condition info: stereoisomer not certain
reported endpoint: LC retention time (min)
Please respond with the number in min and leave the unit unwritten.

# annotated cases, reported LC retention time shown
>>> measured_value("O=c1oc2ccccc2c(O)c1C(CC(O)c1ccc(-c2ccc(Br)cc2)cc1)c1ccccc1 (stereo not drawn)")
11.5
>>> measured_value("C=CCNc1nc(NCC=C)nc(N2CCN(C(c3ccc(F)cc3)c3ccc(F)cc3)CC2)n1")
13.4
>>> measured_value("CN1CCC23c4c5ccc(O)c4OC2C(=O)CCC3C1C5 (stereo not drawn) [Hydromorphone]")
2.91
>>> measured_value("CCOP(=S)(Oc1ccc(C#N)cc1)c1ccccc1 (stereo not drawn)")
10.9
>>> measured_value("CCCCN(CCCC)SN(C)C(=O)Oc1cccc2c1OC(C)(C)C2")
13.8
>>> measured_value("O=C1OCC(O)=C1Cc1ccccc1")
5.06

LC retention time lookup needed for `O=C(O)c1ccccc1C(=O)Nc1ccc(S(=O)(=O)Nc2nccs2)cc1` , thanks.
4.66

Would you mind telling me what LC retention time value was observed for `Cc1ccc(-c2nc3ccc(C)cn3c2CC(=O)N(C)C)cc1` ?
5.8

###

# experimental protocol: RP, Thermo Scientific Acclaim RSLC 120 C18, 100 × 2.1 mm, 2.2 µm, 30 °C, 0.2 mL/min, estimated dead time 1.1 min; A: water + 0.1% formic acid, pH 2.6; B: methanol + 0.1% formic acid, pH 2.6; gradient (min/%B) 0/10 4/50 17/95 25/95 25.1/10 30/10
# condition info: stereoisomer not certain
Reported values of LC retention time for individual entries
The response must be a number in min with no trailing unit.

Below are worked cases with known answers.
>>> measured_value("CCNc1nc(N)nc(Cl)n1")
5.22
>>> measured_value("CC(C)NCC(O)COc1cccc2ccccc12 (stereo not given)")
6.27
>>> measured_value("COC1C=COC2(C)Oc3c(C)c(O)c4c(O)c(c5c(nc6cc(C)ccn65)c4c3C2=O)NC(=O)C(C)=CC=CC(C)C(O)C(C)C(O)C(C)C(OC(C)=O)C1C (stereo not given)")
12.5

Query: LC retention time; subject: `O=c1[nH]c2ccccc2s1`
7.4

For `Cn1c(=O)c2c(ncn2C)n(C)c1=O` , what is its reported LC retention time?
4.69

###

# experimental protocol: RP, Thermo Scientific Acclaim RSLC 120 C18, 100 × 2.1 mm, 2.2 µm, 30 °C, 0.2 mL/min, estimated dead time 1.1 min; A: 90% water + 10% methanol + 0.01% formic acid + 5 mM ammonium formate, pH 3.61; B: methanol + 0.01% formic acid + 5 mM ammonium formate, pH 3.61; gradient (min/%B) 0/1 1/1 2/39 13/99.9 15/99.9 15.1/1 20.1/1
# condition info: stereoisomer not certain
reported endpoint: LC retention time (min)
Value expressed in min; do not type the unit.

Example compounds with recorded LC retention time:
>>> measured_value("Cc1cc(Cl)ccc1OCCCC(=O)O [MCPB]")
10.1
>>> measured_value("CN(C)CCOC1=Cc2ccccc2Sc2ccc(Cl)cc21 [Zotepine]")
9.04
>>> measured_value("O=P(Oc1ccccc1)(Oc1ccccc1)Oc1ccccc1 [Phosphate-Triphenyl]")
11
>>> measured_value("NC(=O)c1c(Cl)cccc1Cl [Dichlorobenzamide]")
4.48
>>> measured_value("CC1(C)C(C(=O)c2cn(Cc3ccc(F)cc3)c3ccccc23)C1(C)C [FUB-144]")
12.2
>>> measured_value("CCOC(=O)C(O)(c1ccc(Cl)cc1)c1ccc(Cl)cc1 [Chlorobenzilate]")
11.7

State the recorded LC retention time for this entry: O=C(CCCN1CC=C(n2c(=O)[nH]c3ccccc32)CC1)c1ccc(F)cc1 [Droperidol]
6.16

Give its LC retention time value. Item: COP(=O)(OC)OC(C)=CC(=O)N(C)C [Dicrotophos]
4.5

Look up LC retention time for this compound: COP(=S)(OC)Oc1cc(Cl)c(I)cc1Cl [Iodofenphos (Jodfenphos)]
12.7
